growth inhibition values by entry
assay: NCI Yeast Anticancer Drug Screen. Data for the mlh1 rad18 strain (AID 175); conditions: S. cerevisiae mlh1 rad18 strain growth inhibition; at 50.0 µM; hits give high values
Compounds without any hit were thinned out: in the full panel of roughly 79,000, 15% have a hit.
MEASURED METRIC: growth inhibition (%)

# COMPOUND, ENDPOINT UNIT, RECORDED NUMBER
measured = [
    ("O=C(NC1=C(Cl)C(=O)c2ccccc2C1=O)C(=O)c1c(O)c2ccccc2oc1=O", "%", 91.3),
    ("O=C(/C=C\\c1ccc(/C=C\\C(=O)c2ccccc2O)cc1)c1ccccc1O", "%", -23.3),
    ("CC(O)CN1CCCC1 (stereo not drawn)", "%", 9.35),
    ("Nc1c(I)cc(C(=O)O)c(O)c1I", "%", -9.15),
    ("O=C1C(O)=C(c2ccccc2)C12CSC1(CS2)C(=O)C(O)=C1c1ccccc1 (stereo not drawn)", "%", 17.3),
    ("O=C(Nc1ccc(F)cc1)C(=O)C(C1OC(=O)c2ccccc21)[N+](=O)[O-] (stereo not drawn)", "%", 15.8),
    ("CC1=C(C(=O)CC(=O)C(=O)Nc2ccc(C)cc2)Sc2ccccc2N1", "%", -8.25),
    ("C[N+]1(CCC(/C=C/c2ccc([N+](=O)[O-])cc2)=N\\O)CCOCC1", "%", 46.5),
]
